- PROCEDURE_DETAILS: Peptide hydrogel formation, vial-inverting method
- Format: physicochemical
- TEST_SETTINGS: 60 mM peptide in ultrapure water; pH 6.5-8.5 (1 N NaOH), ultrasonication, standing 48 h; vial-inverting method; no gel at 30 mM
Where a SMILES comes first, the peptide text is derived from it.
REPORTED_METRIC: State

Below: 5 compounds and their reported State.
| COMPOUND | State |
| --- | --- |
| CC(C)C[C@H](N)C(=O)N[C@H](C(=O)N[C@@H](Cc1ccccc1)C(=O)NCC(=O)O)C(C)C [LVFG] (H-LVFG-OH) | gel |
| CC(C)C[C@H](N)C(=O)N[C@@H](CO)C(=O)N[C@@H](Cc1ccccc1)C(=O)N[C@@H](Cc1c[nH]c2ccccc12)C(=O)O [LSFW] (H-LSFW-OH) | gel |
| CC(C)[C@H](NC(=O)[C@@H](NC(=O)[C@H](C)NC(=O)[C@@H](N)Cc1c[nH]c2ccccc12)C(C)C)C(=O)O [WAVV] (H-WAVV-OH) | gel |
| C[C@H](NC(=O)[C@@H](N)Cc1ccc(O)cc1)C(=O)N[C@@H](Cc1c[nH]c2ccccc12)C(=O)N[C@@H](Cc1ccccc1)C(=O)O [YAWF] (H-YAWF-OH) | gel |
| CC(C)C[C@H](NC(=O)[C@H](Cc1c[nH]c2ccccc12)NC(=O)[C@@H](NC(=O)[C@@H](N)CCCCN)C(C)C)C(=O)O [KVWL] (H-KVWL-OH) | gel |

GET /values?readout=State&item= CC[C@H](C)[C@H](NC(=O)[C@@H](NC(=O)[C@@H](NC(=O)[C@@H](N)Cc1c[nH]c2ccccc12)C(C)C)[C@@H](C)CC)C(=O)O [WVII] (H-WVII-OH)
gel

CC[C@H](C)[C@H](NC(=O)[C@H](C)NC(=O)[C@@H](NC(=O)[C@@H](N)CC(C)C)C(C)C)C(=O)O [LVAI] (H-LVAI-OH) , same question.
gel

Repeat with CC[C@H](C)[C@H](NC(=O)[C@@H](N)CS)C(=O)N[C@@H](Cc1ccc(O)cc1)C(=O)N[C@@H](Cc1ccccc1)C(=O)O [CIYF] (H-CIYF-OH)
gel

----------
- PROCEDURE_DETAILS: Peptide hydrogel formation, vial-inverting method
- Format: physicochemical
- Set-up: key: 0: no hydrogel; 1: hydrogel
- TEST_SETTINGS: peptide concentration 120 mM; vial-inverting method; 1 = hydrogel, 0 = no hydrogel
Where a SMILES comes first, the peptide text is derived from it.
REPORTED_METRIC: GELATION
API doc: respond with a numeric literal and nothing else, no unit.

Field: example entries. Status: answers known.
| COMPOUND | GELATION |
| --- | --- |
| CC(C)C[C@H](N)C(=O)N[C@@H](CCCNC(=N)N)C(=O)N[C@@H](Cc1ccccc1)C(=O)N[C@@H](Cc1c[nH]cn1)C(=O)O [LRFH] (H-LRFH-OH) | 0 |
| N[C@@H](Cc1c[nH]c2ccccc12)C(=O)N[C@@H](Cc1c[nH]c2ccccc12)C(=O)N[C@@H](Cc1c[nH]c2ccccc12)C(=O)N[C@@H](Cc1c[nH]c2ccccc12)C(=O)O [WWWW] (H-WWWW-OH) | 0 |
| CC(C)C[C@H](NC(=O)[C@H](Cc1ccccc1)NC(=O)[C@@H](N)CS)C(=O)N[C@@H](Cc1c[nH]c2ccccc12)C(=O)O [CFLW] (H-CFLW-OH) | 0 |
| CC(C)C[C@H](NC(=O)[C@H](C)NC(=O)[C@@H](N)Cc1c[nH]c2ccccc12)C(=O)N[C@@H](Cc1c[nH]c2ccccc12)C(=O)O [WALW] (H-WALW-OH) | 1 |

Query: GELATION; subject: C[C@H](NC(=O)[C@@H](N)Cc1ccc(O)cc1)C(=O)N[C@@H](Cc1ccc(O)cc1)C(=O)N[C@@H](Cc1ccc(O)cc1)C(=O)O [YAYY] (H-YAYY-OH)
0

Now consider CSCC[C@H](NC(=O)[C@H](CCSC)NC(=O)[C@H](Cc1ccccc1)NC(=O)[C@@H](N)C(C)C)C(=O)O [VFMM] (H-VFMM-OH) and answer again.
1

Same for N[C@@H](CS)C(=O)N[C@@H](Cc1c[nH]c2ccccc12)C(=O)N[C@@H](Cc1c[nH]cn1)C(=O)N[C@@H](Cc1ccc(O)cc1)C(=O)O [CWHY] (H-CWHY-OH)
1

What would you report for CC(C)[C@H](N)C(=O)N[C@@H](Cc1ccccc1)C(=O)NCC(=O)N[C@H](C(=O)O)C(C)C [VFGV] (H-VFGV-OH) ?
0

Next entry: CC[C@H](C)[C@H](N)C(=O)N[C@H](C(=O)N[C@H](C(=O)N[C@@H](CCCNC(=N)N)C(=O)O)[C@@H](C)CC)[C@@H](C)CC [IIIR] (H-IIIR-OH)
0

----------
- PROCEDURE_DETAILS: Transmission electron microscope (negative staining) of peptide assemblies
- TEST_SETTINGS: TEM, negative staining with uranyl acetate, 120 kV; line of the table gives 30 mM
Where a SMILES comes first, the peptide text is derived from it.
REPORTED_METRIC: Morphology

| COMPOUND | ASSAY_RESULT |
| --- | --- |
| C[C@@H](O)[C@H](NC(=O)[C@@H](N)CS)C(=O)N[C@@H](Cc1ccc(O)cc1)C(=O)N[C@@H](Cc1ccccc1)C(=O)O [CTYF] (H-CTYF-OH) | fibre |
| CC[C@H](C)[C@H](N)C(=O)N[C@H](C(=O)N[C@H](C(=O)N[C@H](C(=O)O)[C@@H](C)CC)[C@@H](C)CC)C(C)C [IVII] (H-IVII-OH) | sheet |

----------
- PROCEDURE_DETAILS: Transmission electron microscope (negative staining) of peptide assemblies
- TEST_SETTINGS: TEM, negative staining with uranyl acetate, 120 kV; line of the table gives 30 mM
Where a SMILES comes first, the peptide text is derived from it.
REPORTED_METRIC: Morphology

| COMPOUND | ASSAY_RESULT |
| --- | --- |
| CC(C)[C@H](NC(=O)[C@@H](N)CC(=O)O)C(=O)N[C@@H](Cc1ccccc1)C(=O)N[C@@H](Cc1c[nH]c2ccccc12)C(=O)O [DVFW] (H-DVFW-OH) | fibre |
| NCC(=O)N[C@@H](Cc1ccccc1)C(=O)N[C@@H](Cc1ccccc1)C(=O)N[C@@H](Cc1ccc(O)cc1)C(=O)O [GFFY] (H-GFFY-OH) | sheet |
| CC(C)[C@H](N)C(=O)N[C@@H](Cc1ccccc1)C(=O)N[C@H](C(=O)N[C@@H](Cc1ccccc1)C(=O)O)C(C)C [VFVF] (H-VFVF-OH) | sheet |
| CC(C)C[C@H](NC(=O)[C@H](Cc1c[nH]cn1)NC(=O)[C@@H](N)Cc1ccccc1)C(=O)N[C@@H](Cc1ccccc1)C(=O)O [FHLF] (H-FHLF-OH) | sheet |

Can you look up the measured Morphology of CC[C@H](C)[C@H](NC(=O)[C@@H](NC(=O)[C@@H](N)Cc1c[nH]c2ccccc12)[C@@H](C)O)C(=O)N[C@@H](Cc1ccccc1)C(=O)O [WTIF] (H-WTIF-OH) for me?
fibre

----------
- PROCEDURE_DETAILS: Peptide hydrogel formation, vial-inverting method
- Type: physicochemical
- TEST_SETTINGS: 120 mM peptide (highest tested) in ultrapure water; pH 6.5-8.5 (1 N NaOH), ultrasonication, standing 48 h; vial-inverting method; precipitate, sol, suspension = no gel
Where a SMILES comes first, the peptide text is derived from it.
REPORTED_METRIC: State

Use the examples below as a reference point.
| COMPOUND | ASSAY_RESULT |
| --- | --- |
| O=C(O)[C@@H]1CCCN1C(=O)[C@@H]1CCCN1C(=O)[C@@H]1CCCN1C(=O)[C@@H]1CCCN1 [PPPP] (H-PPPP-OH) | suspension |
| CSCC[C@H](NC(=O)[C@H](CC(N)=O)NC(=O)[C@@H](NC(=O)CN)C(C)C)C(=O)O [GVNM] (H-GVNM-OH) | suspension |
| CC(C)[C@H](N)C(=O)N[C@@H](C)C(=O)N[C@@H](Cc1ccccc1)C(=O)N[C@@H](Cc1ccc(O)cc1)C(=O)O [VAFY] (H-VAFY-OH) | gel |
| C[C@H](NC(=O)[C@@H](N)Cc1ccc(O)cc1)C(=O)N[C@@H](Cc1ccc(O)cc1)C(=O)N[C@@H](Cc1ccc(O)cc1)C(=O)O [YAYY] (H-YAYY-OH) | sol |
| N[C@@H](CCC(=O)O)C(=O)N[C@@H](CCC(=O)O)C(=O)N[C@@H](CCC(=O)O)C(=O)N[C@@H](CCC(=O)O)C(=O)O [EEEE] (H-EEEE-OH) | suspension |

Reported State for CC[C@H](C)[C@H](N)C(=O)N[C@H](C(=O)N[C@@H](Cc1ccccc1)C(=O)N[C@@H](Cc1c[nH]c2ccccc12)C(=O)O)C(C)C [IVFW] (H-IVFW-OH) : what is it?
gel

// repeat for CC(C)C[C@H](NC(=O)[C@H](C)NC(=O)[C@@H](N)C(C)C)C(=O)N[C@H](C(=O)O)C(C)C [VALV] (H-VALV-OH) and report
sol

Try this compound next: CC(C)[C@H](NC(=O)[C@@H](N)CC(N)=O)C(=O)N[C@@H](Cc1ccccc1)C(=O)N[C@@H](Cc1c[nH]cn1)C(=O)O [NVFH] (H-NVFH-OH)
suspension

Now the compound O=C(O)[C@H](CS)NC(=O)[C@H](Cc1c[nH]c2ccccc12)NC(=O)[C@H](Cc1c[nH]c2ccccc12)NC(=O)[C@@H]1CCCN1 [PWWC] (H-PWWC-OH)
suspension

Quick one: NCCCC[C@H](NC(=O)[C@H](CCCCN)NC(=O)[C@H](CCC(=O)O)NC(=O)[C@@H](N)CCC(=O)O)C(=O)O [EEKK] (H-EEKK-OH)
sol

Request: CC[C@H](C)[C@H](NC(=O)[C@H](Cc1ccc(O)cc1)NC(=O)[C@H](Cc1ccc(O)cc1)NC(=O)[C@@H]1CCCN1)C(=O)O [PYYI] (H-PYYI-OH)
sol

Also CC(C)[C@H](N)C(=O)N[C@@H](Cc1ccccc1)C(=O)N[C@@H](Cc1c[nH]cn1)C(=O)N[C@@H](CC(N)=O)C(=O)O [VFHN] (H-VFHN-OH) ?
suspension

// next record CSCC[C@H](NC(=O)[C@H](CCSC)NC(=O)[C@H](Cc1ccccc1)NC(=O)[C@@H](N)C(C)C)C(=O)O [VFMM] (H-VFMM-OH)
gel

Can you check CC(C)C[C@H](N)C(=O)N[C@H](C(=O)N[C@@H](Cc1c[nH]c2ccccc12)C(=O)N[C@@H](Cc1ccccc1)C(=O)O)[C@@H](C)O [LTWF] (H-LTWF-OH) next?
sol

Next entry: N=C(N)NCCC[C@H](NC(=O)[C@H](CCCNC(=N)N)NC(=O)[C@H](CCCNC(=N)N)NC(=O)[C@@H](N)CCCNC(=N)N)C(=O)O [RRRR] (H-RRRR-OH)
sol

Also need N[C@@H](Cc1c[nH]c2ccccc12)C(=O)N1CCC[C@H]1C(=O)N[C@@H](Cc1ccc(O)cc1)C(=O)N[C@@H](Cc1ccc(O)cc1)C(=O)O [WPYY] (H-WPYY-OH) , thanks.
precipitate

Moving on to CC[C@H](C)[C@H](N)C(=O)N[C@@H](Cc1c[nH]c2ccccc12)C(=O)N1CCC[C@H]1C(=O)N[C@@H](Cc1c[nH]c2ccccc12)C(=O)O [IWPW] (H-IWPW-OH)
precipitate

Same question for CC[C@H](C)[C@H](NC(=O)[C@@H](NC(=O)[C@@H](N)CC(C)C)C(C)C)C(=O)N[C@@H](Cc1ccc(O)cc1)C(=O)O [LVIY] (H-LVIY-OH) please.
gel

And what about the compound CSCC[C@H](NC(=O)[C@H](Cc1c[nH]c2ccccc12)NC(=O)[C@@H](N)Cc1c[nH]c2ccccc12)C(=O)N[C@@H](Cc1ccccc1)C(=O)O [WWMF] (H-WWMF-OH) ?
gel

Try this compound too: CSCC[C@H](N)C(=O)N[C@H](C(=O)N[C@@H](CCC(N)=O)C(=O)NCC(=O)O)C(C)C [MVQG] (H-MVQG-OH)
suspension

Measured values drawn from paper PMC10313671 for this set.
